# system-name: Dihydroorotase (Escherichia coli (strain K12), UniProt P05020)
# Sequence (P05020 whole entry): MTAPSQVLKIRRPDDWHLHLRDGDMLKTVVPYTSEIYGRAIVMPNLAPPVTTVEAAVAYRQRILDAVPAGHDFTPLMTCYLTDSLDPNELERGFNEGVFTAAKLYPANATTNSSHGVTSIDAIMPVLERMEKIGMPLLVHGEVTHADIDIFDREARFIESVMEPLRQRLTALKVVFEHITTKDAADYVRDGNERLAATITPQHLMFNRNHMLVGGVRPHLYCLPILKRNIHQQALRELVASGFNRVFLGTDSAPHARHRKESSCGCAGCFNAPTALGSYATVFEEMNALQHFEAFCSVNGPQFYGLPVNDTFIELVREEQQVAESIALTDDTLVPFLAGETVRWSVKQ
# test-protocol: Inhibition Assay
# applied-conditions: pH 7
pKi: −log10 of the molar value.
reported-metric: pKi

INSERT INTO measurements (compound, data_value) VALUES
  ('O=C1CC(=O)N[C@H](C(=O)O)C1', 1.12);

Data origin: BindingDB's records for doi:10.1016/j.bioorg.2005.08.001
